Parameter P3_MAL Rank (after): see the listing below.
- Test target: MAL^TIR (Homo sapiens, UniProt P58753)
- Construct: MAL (residues 79–221); 6xHis; made in house; host or cells: E. coli BL21 (DE3)
- Sequence (P58753 79-221): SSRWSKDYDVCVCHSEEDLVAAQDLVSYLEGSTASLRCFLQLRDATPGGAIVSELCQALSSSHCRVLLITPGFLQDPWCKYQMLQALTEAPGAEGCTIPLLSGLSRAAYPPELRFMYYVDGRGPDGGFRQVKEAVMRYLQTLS
- Method summary: T‐Surf phage library (P8 and P3) selection against MAL^TIR, four rounds, NGS read counts
- Format: binding
- Particulars: P3 library, selection against MAL, rank by count after grouping
Metric: P3_MAL Rank (after)

* KHSNNDQKWAETASRK | 765
* SSFREGLWRLLGLIKK | 680
* RGFRSHLRQHLQAKDH | 772
* KWFLAKLIYALSRNPH | 758
* RYIMPHPQVLSQKKQQ | 725
* VEPTQVRKLRGAVEKV | 743
* YAFPFHLFSCPELRGV | 742
* KMQKWKDALYEAAN | 710
* GPDTRRKFISFLYKEL | 683
* SSFRVGLCRLMALIQQ | 685
* FLNFRGLVVRNYFLVH | 720
* NDVEGCRDALTKVASL | 679
* RLLKWKEALHQFQTWL | 701
* RAFSSHLRHHLLAKDQ | 678
* RGFLNHLHHHLQPNDH | 703
* RLRKWKGALHHFLSWG | 728
* SNLREGLWGLLELSKK | 684
* HQAFWNRLWAKLKPP | 755
* KNLFHELVIKNIRTFM | 696
* DWFLSKLSQHSLKLEK | 718
* RAFVAHPQELIQKKQQ | 739
* WHFHVRLCLRKLLQAM | 694
* HQTFWDRLCAKLKAPI | 705
* LKVESWLQTLAKAGKL | 763
* SSLREGLLRLQELSKK | 713
* SLRKNLVRNLIEEFNR | 759
* YAFTGHLHRYLMPRGV | 698
* HQSFWARTWAALIAPS | 724
* KSILDTEARIWAGVR | 695
* RGFLCHLRHHLQATDH | 706
* KMQQWQDALYEAANLS | 691
* DSHSSRFKEDAELGGQ | 687
* EKIVEWVWEKAHNRFK | 770
* LKEESWRQAQEKAGKL | 744
* YAFTGHLHRYLVQRRS | 704
* LKWGDPYFWSNCVMR | 699
* KERLHQWKLALTQAANLS | 766

* * *

- Test target: MAL^TIR (Homo sapiens, UniProt P58753)
- Construct: MAL (residues 79–221); 6xHis; made in house; host or cells: E. coli BL21 (DE3)
- Method summary: T‐Surf phage library (P8 and P3) selection against MAL^TIR, four rounds, NGS read counts
- Assay type: binding
- Particulars: P8 library, selection against MAL, rank before grouping
Decision: P8_MAL Rank (before) >= 2000 yields Met, all other cases yield Not met.

• AFFWAQLKSTLGETSF = Not met
• LFLWECLKQLLRSDGR = Met
• AFLYTFLINLTHPTKV = Not met
• RKFWAYLFQALANKGS = Met
• YFLHFLLYDHLRWLGIRAFL = Not met
• LFYERLVSLILRDTRG = Not met
• AFLGAQLKSVLGKPTM = Not met
• RNFVAQLKRALANKAI = Met
• RNFVADLFPALPNKGI = Met
• LFFWESLKQLLRRWP = Met
• PFFWAQLKSLLRNPTS = Met
• TFLGNLYNPLVQAGLH = Met
• HLFCIQLKSILGETSF = Met
• AFFWAKLKRVLGNPTL = Not met

* * *

- Test target: MAL^TIR (Homo sapiens, UniProt P58753)
- Construct: MAL (residues 79–221); 6xHis; made in house; host or cells: E. coli BL21 (DE3)
- Method summary: T‐Surf phage library (P8 and P3) selection against MAL^TIR, four rounds, NGS read counts
- Format: binding
- Particulars: P8 library, 4R selection against MAL, rank after grouping
Metric: P8_MAL Rank (after)

* AFFCTQLKSVLGNPTI | 587
* HLLKIVLEKFASHRSS | 614
* HFFWIQLKNILGENSF | 610
* LFFWESLKQPLRSEGR | 608
* HFFWVKLKSILGETSL | 592
* LFFWECLKKLLRRDGR | 601
* RNFVADLFQALADKGI | 666
* AFFWEQLRTVLRTPTL | 613
* DAEDMFWTQLREALDA | 602
* RNLVAYQFQALPNKGI | 658
* AFFWEHLRPLLGKQAM | 622
* YFLQVRLFNLLESDDR | 600
* AFFWERLRPVLRKPTR | 637
* AFLYTFLFNLTHQTNS | 590
* AFFLAQLKSVLGNPTT | 670
* AFRYTFLIILTDPTNF | 599
* TFLGQTYNAQAPAEIP | 644
* LFFWDSLKHLLRCDGC | 593
* LFLWASLKQLLRSANC | 661
* AFFWPKLKSGLGNPTM | 635
* RNFVAYLFQALAKKGS | 591
* RNNYIGHLYQALYRNG | 596
* AFLYNFLLNLTHKPTF | 671
* AFFCTQLLNVLRKPTI | 655
* TFLGHLYNSLVQAGTH | 633
* AFLYNFFNDLTHPTIY | 582
* WFYKPLVSLILRDTKA | 619
* TFLGHLYNTLVQACIH | 650
* RNFVAHLFQALANKAI | 667
* QLIQQWIELQLRQLHL | 584
* YFLHFLLFSLPATEYI | 663
* ALQYTILINLTNPTNF | 665
* AFFWAQLKQLLRSDGR | 629
* QLIQQWSELHLLQLHL | 621
* VFFWAQLKKVLRNPTR | 627
* HFWWIPLKSILGETSF | 632
* SEFIQKITLGMNPKIG | 673

* * *

- Test target: MyD88^TIR (Homo sapiens, UniProt Q99836)
- Construct: MyD88 (residues 148–296); 6xHis; made in house; host or cells: E. coli BL21 (DE3)
- Sequence (Q99836 148-296): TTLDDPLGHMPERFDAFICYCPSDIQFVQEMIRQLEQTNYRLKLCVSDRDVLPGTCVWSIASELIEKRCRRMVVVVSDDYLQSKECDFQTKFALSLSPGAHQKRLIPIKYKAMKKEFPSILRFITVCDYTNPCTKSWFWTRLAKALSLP
- Method summary: T‐Surf phage library (P8 and P3) selection against MyD88^TIR, four rounds, NGS read counts
- Format: binding
- Particulars: P3 library, selection against MyD88 TIR; rank by count before grouping
Parameter P3_MyD88 Rank (before): see the listing below.
Metric: P3_MyD88 Rank (before)

* DHHLDLPRGKAIKPEFW | 951
* NGHENEIIKEIVETIV | 3381
* HLLKEFYKKQITAFKD | 2773
* KNLSNELVSKNILTFM | 3787
* AVDKETDKIQTAEKC | 924
* NGHESENIKEIVDTIL | 3377
* SSFREALWRLLGLSEK | 3225
* YTALNHSGFHTFRDND | 1702
* YLKVESWRQALEKAGKL | 864
* NNLFNELVSKNIRTLM | 3559
* PEKDNGGENALSITL | 1121
* YLKWAIRGFGIVCVL | 862
* GEDTRYTFTGHLHRYLVQRGV | 917
* LKVESWRQALDELVL | 1077
* YTELTSSGFHTFRDND | 1713
* PSEVRNRPAAWRKRL | 1127
* DHHLDLSRGKAIKPAILG | 1997
* LKWGDPYFWSKLRFA | 1061
* PSDVRKKTGSLAKAFA | 2735
* VGKLKKGESFAPELLR | 1765
* DHHLDLPRGKEIKPELLG | 2038
* QGGDEITPSLFKAFKD | 1150
* NQWRNAQTAAANLNGW | 3525
* LVAHELLKKMKIFATI | 2275
* SELRVVDDGSVSPLK | 3038
* YYLDTSHHRKQSGEFG | 1438
* SSFREDLCRLLALSNK | 3226
* DHHLDLPRGKALKPEMLG | 2046
* SSFREGLWRLLEVSQK | 3151
* SSLREGLWRLLELSKR | 3257
* SWGQSFLKSPLGWLFA | 2936
* NQLRNAQTAAANLSGW | 3463
* PSEVRVVDDGSVSPLEM | 1126
* YLQWGYSWFWDRLRFA | 1558
* YTALINSGFHTFRDNH | 1637
* PSEVRKQTGSLAKALRRNCC | 1130
* NQQRFGGKVDAWKAAL | 3542

* * *

- Test target: MAL^TIR (Homo sapiens)
- Construct: MAL (residues 79–221); 6xHis; made in house; host or cells: E. coli BL21 (DE3)
- Method summary: T‐Surf phage library (P8 and P3) selection against MAL^TIR, four rounds, NGS read counts
- Assay type: binding
- Particulars: P8_MAL: rank by count before grouping
Threshold 2000: Rank (before) strictly smaller gives Y, otherwise N.

- AFLWAQLNSVLGNPTM: Y
- RNFVAYLFQGLANKVI: N
- WFYERPVSLILRDTIV: Y
- LFFWERLKQLLRSDCR: N
- AFQYTFLFNLTHPTNF: Y
- AFFWAQPKSVLGNPTV: Y
- AFLYTFLINLTHPTIH: Y
- TFLGHLYNALVQAAF: N
- AFCWAQLKSVLGNPTR: Y
- WLYERLVSLSLRDTKV: Y
- SEFLGAAEKRAGQSDD: N
- SEFIQKIILWMNQTNV: N
- YLKWGYPWFWIVCVL: Y
- RNFGNSCVPCWANRR: N
- YAASPWWFDELVKIVG: Y
- AFFWAQLKSGLGNPTK: Y
- SEFIQKIILWMNQQIV: N
- RNLVAYLLQALANKGI: N

Reference source for all entries: paper PMC11714206
